Tested on: S. aureus USA 300
ASSAY PROCEDURE: Minimal inhibitory concentration, microbroth dilution
Type: cell-based
CONDITION SUMMARY: Staphylococcus aureus, USA300; MIC; read-out: Minimal Inhibitory Concentrations (μM) S. aureus USA 300
Numbered stars: 1 amine (or outer) side, 2 acyl side, 3 side chain; on linkers, the order of the positions; unused ones are H or OH. Bridge positions count the residues as written; N and C are the ends. Square brackets hold non-standard residues; d marks the D form. Peptide text beside a SMILES is read from it. * marks the point of attachment. Piperazine(2S-CO,4-Me) = CN1CCN[C@H](C(=O)O)C1; Phe(3-Cl) = N[C@@H](Cc1cccc(Cl)c1)C(=O)O; Phe(3-Me) = Cc1cccc(C[C@H](N)C(=O)O)c1; NH(4-Cl-2-F-phenyl) = Fc1cc(Cl)ccc1N*; Pro(4R-Me) = C[C@H]1CN[C@H](C(=O)O)C1; Hyp = O=C(O)[C@@H]1C[C@@H](O)CN1; aThr = C[C@H](O)[C@H](N)C(=O)O; Pip = O=C(O)[C@@H]1CCCCN1; CO = O=C([*:1])[*:2]
PARAMETER: MIC (µM)
Dear colleague, please return just the value in µM, with no unit written.

# return recorded MIC for input Cc1cccc(C[C@H](NC(=O)Nc2ccc(Cl)cc2F)C(=O)N[C@@H]2C(=O)N3C[C@H](O)C[C@H]3C(=O)N3CCCC[C@H]3C(=O)N[C@@H](C)C(=O)N3C[C@H](C)C[C@H]3C(=O)O[C@H]2C)c1 [Compound 6] ({NH(4-Cl-2-F-phenyl)-CO}-[Phe(3-Me)][aThr][Hyp][Pip]A[Pro(4R-Me)]; ester 2-C)
0.156

# return recorded MIC for input C[C@@H]1C[C@H]2C(=O)O[C@@H](C)[C@H](NC(=O)[C@H](Cc3cccc(Cl)c3)NC(=O)Nc3ccc(Cl)cc3F)C(=O)N3CCC[C@H]3C(=O)N3CCN(C)C[C@H]3C(=O)N[C@@H](C)C(=O)N2C1 [Compound 33] ({NH(4-Cl-2-F-phenyl)-CO}-[Phe(3-Cl)][aThr]P[Piperazine(2S-CO,4-Me)]A[Pro(4R-Me)]; ester 2-C)
0.078

* * *

ASSAY PROCEDURE: Plasma stability assay
Format: in vitro ADME, human
CONDITION SUMMARY: human, 10 μM
Numbered stars: 1 amine (or outer) side, 2 acyl side, 3 side chain; on linkers, the order of the positions; unused ones are H or OH. Bridge positions count the residues as written; N and C are the ends. Square brackets hold non-standard residues; d marks the D form. Peptide text beside a SMILES is read from it. * marks the point of attachment. Piperazine(2S-CO,4-Me) = CN1CCN[C@H](C(=O)O)C1; Phe(3-OMe) = COc1cccc(C[C@H](N)C(=O)O)c1; Morpholine(3S-CO) = O=C(O)[C@@H]1COCCN1; Phe(3-Me) = Cc1cccc(C[C@H](N)C(=O)O)c1; NH(4-Cl-2-F-phenyl) = Fc1cc(Cl)ccc1N*; Pro(4R-Me) = C[C@H]1CN[C@H](C(=O)O)C1; Hyp = O=C(O)[C@@H]1C[C@@H](O)CN1; NH(4-Et-phenyl) = CCc1ccc(N*)cc1; aThr = C[C@H](O)[C@H](N)C(=O)O; CO = O=C([*:1])[*:2]
I'd be grateful if you could share measured Human for these entries.
Dear colleague, please return just the value in h, with no unit written.

# return recorded Human for input CCc1ccc(NC(=O)N[C@@H](Cc2cccc(C)c2)C(=O)N[C@@H]2C(=O)N3C[C@H](O)C[C@H]3C(=O)N3CCOC[C@H]3C(=O)N[C@@H](C)C(=O)N3C[C@H](C)C[C@H]3C(=O)O[C@H]2C)cc1 [Compound 24] ({NH(4-Et-phenyl)-CO}-[Phe(3-Me)][aThr][Hyp][Morpholine(3S-CO)]A[Pro(4R-Me)]; ester 2-C)
90.86

# return recorded Human for input COc1cccc(C[C@H](NC(=O)Nc2ccc(Cl)cc2F)C(=O)N[C@H]2COC(=O)[C@@H]3C[C@@H](C)CN3C(=O)[C@H](C)NC(=O)[C@@H]3CN(C)CCN3C(=O)[C@@H]3CCCN3C2=O)c1 [Compound 19] ({NH(4-Cl-2-F-phenyl)-CO}-[Phe(3-OMe)]SP[Piperazine(2S-CO,4-Me)]A[Pro(4R-Me)]; ester 2-C)
62.38

* * *

I'd be grateful if you could share measured IC50 at 72 h for these entries.
ASSAY PROCEDURE: Cytotoxicity assay (CellTiter-Glo cell viability)
Type: cell-based
CONDITION SUMMARY: African green monkey; Vero cells, 72 hours; read-out: Cytotoxicity IC50
Numbered stars: 1 amine (or outer) side, 2 acyl side, 3 side chain; on linkers, the order of the positions; unused ones are H or OH. Bridge positions count the residues as written; N and C are the ends. Square brackets hold non-standard residues; d marks the D form. Peptide text beside a SMILES is read from it. * marks the point of attachment. Phe(3,5-F2) = N[C@@H](Cc1cc(F)cc(F)c1)C(=O)O; NH(1-Me-indolin-5-yl) = CN1CCc2cc(N*)ccc21; Morpholine(3S-CO) = O=C(O)[C@@H]1COCCN1; Phe(3-Me) = Cc1cccc(C[C@H](N)C(=O)O)c1; Pro(4R-Me) = C[C@H]1CN[C@H](C(=O)O)C1; NH(4-Me-phenyl) = Cc1ccc(N*)cc1; aThr = C[C@H](O)[C@H](N)C(=O)O; Pip = O=C(O)[C@@H]1CCCCN1; CO = O=C([*:1])[*:2]
Dear colleague, please return just the value in nM, with no unit written.

# return recorded IC50 at 72 h for input Cc1ccc(NC(=O)N[C@@H](Cc2cccc(C)c2)C(=O)N[C@@H]2C(=O)N3CCC[C@H]3C(=O)N3CCCC[C@H]3C(=O)N[C@@H](C)C(=O)N3C[C@H](C)C[C@H]3C(=O)O[C@H]2C)cc1 [Compound 1] ({NH(4-Me-phenyl)-CO}-[Phe(3-Me)][aThr]P[Pip]A[Pro(4R-Me)]; ester 2-C)
1590

# return recorded IC50 at 72 h for input C[C@@H]1C[C@H]2C(=O)O[C@@H](C)[C@H](NC(=O)[C@H](Cc3cc(F)cc(F)c3)NC(=O)Nc3ccc4c(c3)CCN4C)C(=O)N3CCC[C@H]3C(=O)N3CCOC[C@H]3C(=O)N[C@@H](C)C(=O)N2C1 [Compound 32] ({NH(1-Me-indolin-5-yl)-CO}-[Phe(3,5-F2)][aThr]P[Morpholine(3S-CO)]A[Pro(4R-Me)]; ester 2-C)
2870

* * *

I'd be grateful if you could share measured Human for these entries.
ASSAY PROCEDURE: Plasma protein binding, rapid equilibrium dialysis
Format: in vitro ADME, human
CONDITION SUMMARY: human, 4 h, 10 μM, pH 7.4
Numbered stars: 1 amine (or outer) side, 2 acyl side, 3 side chain; on linkers, the order of the positions; unused ones are H or OH. Bridge positions count the residues as written; N and C are the ends. Square brackets hold non-standard residues; d marks the D form. Peptide text beside a SMILES is read from it. * marks the point of attachment. Piperazine(2S-CO,4-Me) = CN1CCN[C@H](C(=O)O)C1; Phe(3-Me) = Cc1cccc(C[C@H](N)C(=O)O)c1; NH(4-Cl-2-F-phenyl) = Fc1cc(Cl)ccc1N*; Pro(4R-Me) = C[C@H]1CN[C@H](C(=O)O)C1; aThr = C[C@H](O)[C@H](N)C(=O)O; Pip = O=C(O)[C@@H]1CCCCN1; X3 = c1cc2c(cc1N*)OCCO2; CO = O=C([*:1])[*:2]; X2 = Fc1cc(N*)ccc1Cl
Dear colleague, please return just the value in %, with no unit written.

# return recorded Human for input Cc1cccc(C[C@H](NC(=O)Nc2ccc(Cl)cc2F)C(=O)N[C@@H]2C(=O)N3CCC[C@H]3C(=O)N3CCN(C)C[C@H]3C(=O)N[C@@H](C)C(=O)N3C[C@H](C)C[C@H]3C(=O)O[C@H]2C)c1 [Compound 11] ({NH(4-Cl-2-F-phenyl)-CO}-[Phe(3-Me)][aThr]P[Piperazine(2S-CO,4-Me)]A[Pro(4R-Me)]; ester 2-C)
97.9

# return recorded Human for input Cc1cccc(C[C@H](NC(=O)Nc2ccc3c(c2)OCCO3)C(=O)N[C@@H]2C(=O)N3CCC[C@H]3C(=O)N3CCCC[C@H]3C(=O)N[C@@H](C)C(=O)N3C[C@H](C)C[C@H]3C(=O)O[C@H]2C)c1 [Compound 21] ({X3-CO}-[Phe(3-Me)][aThr]P[Pip]A[Pro(4R-Me)]; ester 2-C)
97.3

# return recorded Human for input Cc1cccc(C[C@H](NC(=O)Nc2ccc(Cl)c(F)c2)C(=O)N[C@H]2COC(=O)[C@@H]3C[C@@H](C)CN3C(=O)[C@H](C)NC(=O)[C@@H]3CN(C)CCN3C(=O)[C@@H]3CCCN3C2=O)c1 [Compound 14] ({X2-CO}-[Phe(3-Me)]SP[Piperazine(2S-CO,4-Me)]A[Pro(4R-Me)]; ester 2-C)
99.1
